Please provide measured peptide exchange yield for the entries that follow.
- measured on: T1, HLA-B*44:02 (human)
- T1 construct: Peptide-receptive MHC class I monomer made by UV cleavage of a UV-sensitive ligand
- assay notes: UV ligand exchange ELISA; exchange yield grade

Recorded peptide exchange yield of AEPLVGQRW , please.
50 to 75%

Recorded peptide exchange yield of REYEYDLKWEF , please.
50 to 75%

Recorded peptide exchange yield of RENQVLGSGW , please.
50 to 75%

Recorded peptide exchange yield of GEIKEPLEI , please.
20 to 50%
